Reported Kd is given for each of the following binders.
tgt: T1, hFc-hC3d (human, UniProt P01024 1002-1303)
T1 construct: range 1002-1303; expressed in HEK293F cells, purified on Protein A; also called hFc-hC3d fusion protein; not shown: human Fc of vector pCEP4-hFc
assay.overview: SPR (Biacore X100), hFc-hC3d captured by anti-human IgG CH2 mAb, Fab injected, 1:1 Langmuir
Value expressed in nM; do not type the unit.

{"columns": ["binder", "quantity.kind", "measurement"],
 "data": [
  ["MN66 (Fab, V domains shown, Lambda) VH: QSVEESGGRLVTPGTPLTLTCTVSGFSLSSYAMSWVRQAPGKGLEWIGIIYPNDITYYASWAKGRFTISKTSTTVDLKITSPTTEDTATYFCARVVSWPGYTTEYYFNIWGPGTLVTISS VL: QFVLTQPQSVSGSLGQTVSMSCKCDSGNIDNYYVHWYQQHPGKAPTTVIYNDDQRPSGVPDRFSGSIDSTSNSASLTITGLLAEDEADYYCLSSVSSDNYVFGGGTQLTVTG", "Kd", 0.31],
  ["4S04 (Fab, V domains shown, Chimeric rabbit/human Fab, kappa, with 6xHis tag) VH: QEQLKESGGRLVTPGTPLTLTCTASGFSLSTYAMIWVRQAPGKGLEYIGIISYGGSAYYASWAKGRFTISKTSTTVDLKITSPTTEDTATYFCARDRGFGYGYGIGYYGLDPWGPGTLVTVSS VL: DGVMTQTPSSTSAAVEGTVTINCQASQSIGSYLSWYQQKPGQPPKLLIYQASKMASGVPSRFKGSGSGTQFTLTISNVQGEDAATYYCLGHYVGDWSFGAGTKVEIK", "Kd", 4.11]
]}

Proceed to the following item.
// field: Kd; key: d301 (Fab, V domains shown, Chimeric rabbit/human Fab, kappa, with 6xHis tag; also called Fab d301; d301 r/h-IgG1k) VH: QSLEESGGRLVTPGTPLTLTCTVSGFSLSTYTLGWVRQAPGKGLEYIGWIDSSGSAYYASWAKGRFTISKASSTTVDLKMAGLTTEDTATYFCASGNTGGDPLYYGMDPWGPGTLVTVSS VL: DPVLTQTPSSTSAAVGGTVTIKCQASQNIGRWLAWYQQKPGQPPKLLIYRASDLASGVPSRFKGSGSGTQFTLTISGVQREDAATYYCLGSYSSSDSAFGGGTEVVVK ; value = 0.99
